ASSAY SYSTEM: 5'-AMP-activated protein kinase catalytic subunit alpha-2 (Homo sapiens, UniProt P54646)
Sequence (P54646 whole entry): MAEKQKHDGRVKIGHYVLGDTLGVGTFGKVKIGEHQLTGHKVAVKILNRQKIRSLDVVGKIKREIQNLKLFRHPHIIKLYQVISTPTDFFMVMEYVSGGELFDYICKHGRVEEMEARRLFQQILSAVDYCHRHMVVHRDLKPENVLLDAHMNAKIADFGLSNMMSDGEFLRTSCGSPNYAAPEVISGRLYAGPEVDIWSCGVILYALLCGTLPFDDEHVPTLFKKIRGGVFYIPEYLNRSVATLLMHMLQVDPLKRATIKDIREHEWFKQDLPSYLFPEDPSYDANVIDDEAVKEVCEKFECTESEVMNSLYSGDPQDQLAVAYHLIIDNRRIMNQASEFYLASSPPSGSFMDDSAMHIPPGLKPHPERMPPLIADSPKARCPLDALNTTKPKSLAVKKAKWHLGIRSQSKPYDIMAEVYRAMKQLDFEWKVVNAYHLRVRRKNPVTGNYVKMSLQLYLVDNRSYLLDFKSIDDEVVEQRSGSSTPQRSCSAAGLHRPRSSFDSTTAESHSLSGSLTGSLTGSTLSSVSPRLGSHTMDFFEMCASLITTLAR
READOUT LABEL: EC50 (nM)

[A] OCc1c(C2CC2)nc2ccccc2c1-c1ccc(F)cc1
[B] Oc1cc(O)c2c(c1)O[C@@]1(c3ccc(O)c(O)c3)Oc3cc(O)c4c(c3[C@@H]2[C@H]1O)O[C@H](c1ccc(O)c(O)c1)[C@@H](O)C4
[C] C[C@]12CCC(=O)C=C1CC[C@@H]1[C@@H]2[C@@H](O)C[C@]2(C=O)[C@@H](C(=O)CO)CC[C@@H]12
[D] N#CC1C(=O)Nc2scc(-c3ccc(-c4ccccc4O)cc3)c2C1=O (centres undefined)
Please list the entries, largest EC50 first. In plain terms: list the labels in the order you were asked to.
B, D, A, C

----------
ASSAY SYSTEM: UniProt:Q9Y4P1
Sequence (Q9Y4P1 whole entry): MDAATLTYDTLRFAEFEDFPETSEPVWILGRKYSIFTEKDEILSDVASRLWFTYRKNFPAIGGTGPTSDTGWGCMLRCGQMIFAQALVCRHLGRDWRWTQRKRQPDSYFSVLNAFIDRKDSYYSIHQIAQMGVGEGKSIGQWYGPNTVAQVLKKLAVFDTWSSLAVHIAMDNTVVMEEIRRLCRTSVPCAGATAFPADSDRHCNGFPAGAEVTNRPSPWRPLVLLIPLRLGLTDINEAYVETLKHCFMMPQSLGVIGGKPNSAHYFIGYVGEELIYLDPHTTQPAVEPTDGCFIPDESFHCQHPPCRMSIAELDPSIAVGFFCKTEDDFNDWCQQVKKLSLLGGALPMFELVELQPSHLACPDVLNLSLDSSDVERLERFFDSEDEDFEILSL
READOUT LABEL: IC50 (nM)
Write the number in nM without appending the unit.

1. O=c1c2ccccc2[se]n1-c1ccccc1 [EBSELEN] : 180

Check the records and state IC50 for Clc1ccc(C(Cn2ccnc2)OCc2ccsc2Cl)c(Cl)c1 (configuration not stated) [TIOCONAZOLE]
1300

----------
ASSAY SYSTEM: 5'-AMP-activated protein kinase catalytic subunit alpha-2 (Homo sapiens)
READOUT LABEL: Ki (nM)
Give just the number in nM; leave the unit off.

Identify measured Ki obtained with 5'-AMP-activated protein kinase catalytic subunit alpha-2 (Homo sapiens) for c1cc(-c2cnn3cc(-c4ccc(OCCN5CCCCC5)cc4)cnc23)ccn1 .
109

----------
// values below are pIC50; system is 5'-AMP-activated protein kinase catalytic subunit alpha-2 (Homo sapiens, UniProt P54646)
pIC50: −log10 of the molar value.
READOUT LABEL: pIC50

[P] CNC(=O)c1ccccc1Oc1nc(Nc2cc(OC)c(OC)c(OC)c2)ncc1Br
[Q] Oc1ccc(/C=C/c2cc(O)cc(O)c2)cc1
From the items above, decide which of P and Q has the lower pIC50 reading. I would appreciate it if you answered with the label of your choice.
Q

----------
System: Translocator protein (Rattus norvegicus, UniProt P16257) | Read-out: IC50
Sequence (P16257 whole entry, looked up): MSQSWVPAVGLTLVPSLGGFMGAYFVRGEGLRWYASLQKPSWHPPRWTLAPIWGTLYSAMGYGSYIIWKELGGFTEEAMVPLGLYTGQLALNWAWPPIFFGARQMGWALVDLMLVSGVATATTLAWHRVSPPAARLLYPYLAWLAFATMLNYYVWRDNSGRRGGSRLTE
Express the result in nM but write the number alone.

1) COC(=O)C1=C(C)NC(C)=C(C(=O)OC)C1c1ccccc1[N+](=O)[O-] : 0.5

We next turn to a different compound, shown below.
Write down the reported IC50 (system: Translocator protein (Rattus norvegicus, UniProt P16257)) of COc1cc2c(cc1OC)-c1c(OC)c(OC)cc3ccnc(c13)C2=O
300

----------
ASSAY SYSTEM: Tumour suppressor p53/oncoprotein Mdm2 (Homo sapiens, UniProt P04637+Q00987)
Sequence (P04637 whole entry): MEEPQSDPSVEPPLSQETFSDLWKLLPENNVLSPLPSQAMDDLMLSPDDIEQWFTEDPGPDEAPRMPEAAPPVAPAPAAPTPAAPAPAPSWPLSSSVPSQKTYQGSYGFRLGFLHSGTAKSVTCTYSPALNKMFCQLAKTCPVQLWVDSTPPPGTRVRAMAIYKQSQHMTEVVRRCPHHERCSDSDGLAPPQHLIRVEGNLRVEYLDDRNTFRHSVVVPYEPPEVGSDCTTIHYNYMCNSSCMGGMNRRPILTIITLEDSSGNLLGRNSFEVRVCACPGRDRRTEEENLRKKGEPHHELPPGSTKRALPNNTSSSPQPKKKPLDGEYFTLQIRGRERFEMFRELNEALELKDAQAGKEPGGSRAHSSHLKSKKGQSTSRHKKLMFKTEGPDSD
Sequence (Q00987 whole entry): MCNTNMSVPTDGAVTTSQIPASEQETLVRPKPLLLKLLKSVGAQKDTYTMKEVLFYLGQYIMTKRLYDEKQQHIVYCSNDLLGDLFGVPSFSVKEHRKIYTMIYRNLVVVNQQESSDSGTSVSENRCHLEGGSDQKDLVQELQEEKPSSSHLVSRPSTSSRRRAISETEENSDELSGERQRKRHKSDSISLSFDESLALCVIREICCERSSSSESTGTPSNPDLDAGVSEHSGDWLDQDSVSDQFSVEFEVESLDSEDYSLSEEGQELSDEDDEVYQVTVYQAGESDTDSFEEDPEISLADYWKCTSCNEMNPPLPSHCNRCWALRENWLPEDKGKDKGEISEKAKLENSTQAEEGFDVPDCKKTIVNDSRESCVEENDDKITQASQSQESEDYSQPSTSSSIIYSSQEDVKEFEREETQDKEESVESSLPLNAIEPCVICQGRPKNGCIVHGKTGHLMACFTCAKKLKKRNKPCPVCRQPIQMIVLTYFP
Listed compounds paired with reported pIC50
pIC50 is defined as minus the log10 of a concentration measured in mol/L.

Solved entries (count: 2):
1) CC(C)=CCC/C(C)=C/Cc1c(O)cc2c(c1O)C(=O)C[C@@H](c1ccc(O)cc1)O2 [BONANNIONE A] : 5.43
2) COc1ccc2cc1Oc1ccc(cc1)C[C@@H]1c3cc(c(OC)cc3CCN1C)Oc1c(OC)c(OC)cc3c1[C@@H](C2)N(C)CC3 [PHAEANTHINE] : 6.75

From here, focus on the item given below.
Quote Tumour suppressor p53/oncoprotein Mdm2 (Homo sapiens, UniProt P04637+Q00987) pIC50 for entry COc1ccc(-c2cc(=O)c3c(OC)c(OC)c(OC)cc3o2)cc1OC [SINENSETIN] .
5.49

----------
ASSAY SYSTEM: GABA-A receptor; anion channel
READOUT LABEL: IC50 (µM)
Kindly answer with a numeric value in µM, unit omitted.

Provide measured IC50 on GABA-A receptor; anion channel for C[C@H]1[C@H](C)CC[C@]2(C(=O)O)CC[C@]3(C)C(=CC[C@@H]4[C@@]5(C)C[C@@H](O)[C@H](O)[C@@](C)(CO)[C@@H]5CC[C@]43C)[C@H]12 [ASIATIC ACID] please.
5.9

Recorded values, source ChEMBL document CHEMBL5512615.
